Overview of reported interaction score across a group of binders:
# System Name: T1, 4H432-AA
# T1 chain: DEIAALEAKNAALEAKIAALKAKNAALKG
# Method: two-hybrid library CCmax;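 note: natural log of median RNA to DNA barcode read ratio; higher means stronger binding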
# Applied Conditions: mean of both orientations
Measurement Name: interaction score

>>> reported("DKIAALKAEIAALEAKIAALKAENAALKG [4H2604-AA]")
-1.37
>>> reported("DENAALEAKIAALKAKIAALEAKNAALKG [4H1384-AA]")
-1.33
>>> reported("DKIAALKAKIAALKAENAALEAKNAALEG [4H2903-AA]")
-1.38
>>> reported("DKNAALKAKNAALEAEIAALEAKIAALKG [4H3974-AA]")
-0.198

Source: paper PMC10397247
